- target_desc: T1, rhNR10 (recombinant human NR10) (human, UniProt Q8NI17 20-519, limits assumed)
- T1 construct: also called IL-31 receptor; IL31RA
- T1 sequence: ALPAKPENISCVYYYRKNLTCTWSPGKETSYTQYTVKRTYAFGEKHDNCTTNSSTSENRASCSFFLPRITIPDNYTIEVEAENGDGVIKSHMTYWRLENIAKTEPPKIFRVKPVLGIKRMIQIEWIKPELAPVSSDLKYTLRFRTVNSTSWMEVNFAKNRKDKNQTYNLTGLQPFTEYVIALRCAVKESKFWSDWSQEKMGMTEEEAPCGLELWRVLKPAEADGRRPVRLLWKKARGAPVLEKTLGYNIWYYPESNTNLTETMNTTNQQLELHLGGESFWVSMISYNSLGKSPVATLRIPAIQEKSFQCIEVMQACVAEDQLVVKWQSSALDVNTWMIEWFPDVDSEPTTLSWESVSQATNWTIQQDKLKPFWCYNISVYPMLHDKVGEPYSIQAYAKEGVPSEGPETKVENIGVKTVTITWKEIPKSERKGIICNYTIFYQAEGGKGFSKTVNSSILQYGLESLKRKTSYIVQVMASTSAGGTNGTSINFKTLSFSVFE
- method_description: SPR, Biacore T100; antibody captured on Protein A, rhNR10 as analyte

{"columns": ["binder", "unit_text", "koff"],
 "data": [
  ["H34L17 (H34-M58 / L17) (antibody, V domains shown) VH: QVQLVQSGAEVKKPGASVKVSCKASGYTFTGYAMNWVRQAPGQGLEWMGLINPYNGGTDYNPQFQDRVTITADESTSTAYMELSSLRSEDTAVYYCARDGYDDGPYTLETWGQGTLVTVSS VL: DIQMTQSPSSLSASVGDRVTITCQASEDIYSFVAWYQQKPGKAPKLLIYNAQTEAQGVPSRFSGSGSGTDFTLTISSLQPEDFATYYCQHHYDSPLTFGGGTKVEIKR", "s⁻¹", 0.0012],
  ["H57L17 (H57-M58 / L17) (antibody, V domains shown) VH: QVQLVQSGAEVKKPGASVKVSCKASGYTFTGYIMNWVRQAPGQGLEWMGLINPYNGGTDYNPQFQGRVTITADESTSTAYMELSSLRSEDTAVYYCARDGYDDGPYTLETWGQGTLVTVSS VL: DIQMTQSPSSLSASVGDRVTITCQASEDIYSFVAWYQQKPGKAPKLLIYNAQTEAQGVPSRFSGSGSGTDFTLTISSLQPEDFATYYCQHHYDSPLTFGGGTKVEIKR", "s⁻¹", 0.00055],
  ["H97L50 (H97-M58 / L50) (antibody, V domains shown) VH: QVQLVQSGAEVKKPGASVKVSCKASGYTFTGYIMNWVRQAPGQGLEWMGLINPYNGGTSYNQQFQDRVTITADESTSTAYMELSSLRSEDTAVYYCARDGYDDGPYTLETWGQGTLVTVSS VL: DIQMTQSPSSLSASVGDRVTITCQASEDIYSFLAWYQQKPGKAPKLLIYNAQTEAQGVPSRFSGSGSGTDFTLTISSLQPEDFATYYCQHHYDSPLTFGGGTKVEIKR", "s⁻¹", 0.0013],
  ["H46L17 (H46-M58 / L17) (antibody, V domains shown) VH: QVQLVQSGAEVKKPGASVKVSCKASGYTFTGYAMNWVRQAPGQGLEWMGLINPYNGGTDYNPQFQDRVTITADKSTSTAYMELSSLRSEDTAVYYCARDGYDDGPYTLETWGQGTLVTVSS VL: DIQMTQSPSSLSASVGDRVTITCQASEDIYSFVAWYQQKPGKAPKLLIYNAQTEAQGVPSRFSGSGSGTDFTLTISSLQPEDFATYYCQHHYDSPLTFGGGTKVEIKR", "s⁻¹", 0.0013],
  ["H30L17 (H30-M58 / L17) (antibody, V domains shown) VH: QVQLVQSGAEVKKPGASVKVSCKASGYTFTGYIMNWVRQAPGQGLEWMGLINPYNGGTDYNPQFQDRVTITADESTSTAYMELSSLRSEDTAVYYCARDGYDDGPYTLETWGQGTLVTVSS VL: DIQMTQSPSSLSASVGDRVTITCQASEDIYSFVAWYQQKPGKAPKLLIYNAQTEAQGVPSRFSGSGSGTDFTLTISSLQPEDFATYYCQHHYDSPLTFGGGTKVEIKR", "s⁻¹", 0.00057]
]}
